Origin of the recorded values: ChEMBL document CHEMBL1138043

What half-life was measured for each of the following?
Experiment: Terminal half life in Sprague-Dawley rat at 3 mg/kg, iv
Assay type: ADME, organism-based
Set-up: dose 3 mg/kg, route intravenous
Conditions: in vivo
Write it as a number; the unit h goes unstated.

Hello, please tell me recorded half-life for this one: `CC(C)C[C@@H](C=O)NC(=O)[C@@H](NS(=O)(=O)c1ccc(F)cc1)C(C)C`
0.7

Give a short answer stating reported half-life for CC(C)C[C@H](NC(=S)Nc1ccccc1)C(=O)N[C@H]1CCOC1O (some centres not stated) .
1.9

###

Molecular target: Calpain-2 catalytic subunit (Sus scrofa)
Sequence (P43367 whole entry): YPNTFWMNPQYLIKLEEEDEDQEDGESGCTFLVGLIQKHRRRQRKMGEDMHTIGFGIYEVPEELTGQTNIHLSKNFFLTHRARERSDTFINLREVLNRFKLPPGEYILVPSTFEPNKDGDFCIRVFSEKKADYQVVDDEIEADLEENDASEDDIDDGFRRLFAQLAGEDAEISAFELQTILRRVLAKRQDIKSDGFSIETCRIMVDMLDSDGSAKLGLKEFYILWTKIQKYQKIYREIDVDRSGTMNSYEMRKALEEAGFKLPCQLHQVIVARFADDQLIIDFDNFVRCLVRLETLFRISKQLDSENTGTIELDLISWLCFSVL
Assay: Inhibition of porcein kidney m calpain
Result type: IC50 (nM)
Numbers only; they are read as nM.

Quick one: give measured IC50 for `CC(C)C[C@@H](C=O)NC(=O)[C@@H](NS(=O)(=O)c1ccc(F)cc1)C(C)C`
49

Return value of IC50 for input CC(C)C[C@H](NC(=S)Nc1ccccc1)C(=O)N[C@H]1CCOC1O (some centres undefined) , no commentary.
190

Note IC50 for the molecule shown: CC(C)[C@H](NS(=O)(=O)c1ccc(F)cc1)C(=O)N[C@H]1CCOC1O (some centres undefined)
2600

###

Assay: Metabolic stability in human hepatic S9 fraction after 0.5 hrs
Assay type: ADME
Settings: liver S9 fraction, read-out: Stability
Provide the reported remaining at 0.5 h of each item.
# unit: % | format: bare number

Please supply the value of reported remaining at 0.5 h for the item CC(C)[C@H](NS(=O)(=O)c1ccc(F)cc1)C(=O)N[C@H]1CCOC1O (stereo not given in full)
79

Fill in remaining at 0.5 h for record CC(C)C[C@H](NC(=S)Nc1ccccc1)C(=O)N[C@H]1CCOC1O (stereo not given in full)
100

Read the entry `CCCCNC(=O)C(=O)[C@H](CC(C)C)NC(=O)[C@@H](NS(=O)(=O)c1ccc(F)cc1)C(C)C` and write its reported remaining at 0.5 h.
25

Indicate the recorded remaining at 0.5 h value for this compound: `CC(C)C[C@@H](C=O)NC(=O)[C@@H](NS(=O)(=O)c1ccc(F)cc1)C(C)C`
3

Provide only the value of recorded remaining at 0.5 h for `CC(C)C[C@@H](/C=N/NC(=O)CN(C)C)NC(=O)[C@@H](NS(=O)(=O)c1ccc(F)cc1)C(C)C`
64

###

Experiment: Tmax in Sprague-Dawley rat at 500 mg/kg, po
Format: ADME, organism-based
Design: dose 500 mg/kg, route oral
Settings: in vivo
Result type: Tmax (h)
Report the figure in h without appending any unit label.

// Input: `CC(C)C[C@@H](C=O)NC(=O)[C@@H](NS(=O)(=O)c1ccc(F)cc1)C(C)C` . Output its Tmax only.
1

###

Could you please report measured clearance for the items listed next?
Assay: Clearance in Sprague-Dawley rat at 3 mg/kg, iv
Type: ADME, organism-based
Set-up: dose 3 mg/kg, route intravenous
Settings: in vivo
All answers are understood in mL/min/kg, so give the number only.

Give recorded clearance. `CC(C)C[C@@H](C=O)NC(=O)[C@@H](NS(=O)(=O)c1ccc(F)cc1)C(C)C`
89

Output measured clearance for this item: CC(C)C[C@H](NC(=S)Nc1ccccc1)C(=O)N[C@H]1CCOC1O (some centres not stated)
55

###

Assay: Tmax in Sprague-Dawley rat at 10 mg/kg, po
Type: ADME, organism-based
Parameters: dose 10 mg/kg, route oral
Details: in vivo
Result type: Tmax (min)
Give a bare numeral; the unit min is implied.

Given CC(C)C[C@H](NC(=S)Nc1ccccc1)C(=O)N[C@H]1CCOC1O (stereo partly specified) , respond with its Tmax.
15
